- Test system: GST-Co-NF-kB RHD-only (Capsaspora owczarzaki)
- experimental.protocol: PBM
- setup.conditions: ~300 nM protein; EMSA: 10 mM HEPES pH 7.8, 50 mM KCl, 1 mM DTT, 1 mM EDTA, 4% glycerol, 40 ug/ml poly-dI-dC, 2X BSA, 50 ug 293T extract, 30 C 30 min; PBM: 6 mM HEPES pH 7.8 …
property.measured: binding signal (PBM z-score)
Note: unit PBM z-score is implicit; provide only the numeric part.

Specify measured binding signal for CCGATTAACATCAGGGAATTCCCTGATGTTAATCGG (double strand) [PBM probe GGGAATTCCC] .
7.25

Specify measured binding signal for CCGATTAACATCAGGAATTCCCATGATGTTAATCGG (double strand) [PBM probe GGAATTCCCA] .
4.61

Specify measured binding signal for CCGATTAACATCACGGAATTCCCTGATGTTAATCGG (double strand) [PBM probe CGGAATTCCC] .
3.4

Specify measured binding signal for CCGATTAACATCAGGAATTCCCCTGATGTTAATCGG (double strand) [PBM probe GGAATTCCCC] .
7.64

Specify measured binding signal for CCGATTAACATCAAGGAATTCCCTGATGTTAATCGG (double strand) [PBM probe AGGAATTCCC] .
4.22
